# study target: NaV1.5 (Homo sapiens (Human), UniProt Q14524)
# Sequence (Q14524 other isoform, or with tags, fused parts or gaps): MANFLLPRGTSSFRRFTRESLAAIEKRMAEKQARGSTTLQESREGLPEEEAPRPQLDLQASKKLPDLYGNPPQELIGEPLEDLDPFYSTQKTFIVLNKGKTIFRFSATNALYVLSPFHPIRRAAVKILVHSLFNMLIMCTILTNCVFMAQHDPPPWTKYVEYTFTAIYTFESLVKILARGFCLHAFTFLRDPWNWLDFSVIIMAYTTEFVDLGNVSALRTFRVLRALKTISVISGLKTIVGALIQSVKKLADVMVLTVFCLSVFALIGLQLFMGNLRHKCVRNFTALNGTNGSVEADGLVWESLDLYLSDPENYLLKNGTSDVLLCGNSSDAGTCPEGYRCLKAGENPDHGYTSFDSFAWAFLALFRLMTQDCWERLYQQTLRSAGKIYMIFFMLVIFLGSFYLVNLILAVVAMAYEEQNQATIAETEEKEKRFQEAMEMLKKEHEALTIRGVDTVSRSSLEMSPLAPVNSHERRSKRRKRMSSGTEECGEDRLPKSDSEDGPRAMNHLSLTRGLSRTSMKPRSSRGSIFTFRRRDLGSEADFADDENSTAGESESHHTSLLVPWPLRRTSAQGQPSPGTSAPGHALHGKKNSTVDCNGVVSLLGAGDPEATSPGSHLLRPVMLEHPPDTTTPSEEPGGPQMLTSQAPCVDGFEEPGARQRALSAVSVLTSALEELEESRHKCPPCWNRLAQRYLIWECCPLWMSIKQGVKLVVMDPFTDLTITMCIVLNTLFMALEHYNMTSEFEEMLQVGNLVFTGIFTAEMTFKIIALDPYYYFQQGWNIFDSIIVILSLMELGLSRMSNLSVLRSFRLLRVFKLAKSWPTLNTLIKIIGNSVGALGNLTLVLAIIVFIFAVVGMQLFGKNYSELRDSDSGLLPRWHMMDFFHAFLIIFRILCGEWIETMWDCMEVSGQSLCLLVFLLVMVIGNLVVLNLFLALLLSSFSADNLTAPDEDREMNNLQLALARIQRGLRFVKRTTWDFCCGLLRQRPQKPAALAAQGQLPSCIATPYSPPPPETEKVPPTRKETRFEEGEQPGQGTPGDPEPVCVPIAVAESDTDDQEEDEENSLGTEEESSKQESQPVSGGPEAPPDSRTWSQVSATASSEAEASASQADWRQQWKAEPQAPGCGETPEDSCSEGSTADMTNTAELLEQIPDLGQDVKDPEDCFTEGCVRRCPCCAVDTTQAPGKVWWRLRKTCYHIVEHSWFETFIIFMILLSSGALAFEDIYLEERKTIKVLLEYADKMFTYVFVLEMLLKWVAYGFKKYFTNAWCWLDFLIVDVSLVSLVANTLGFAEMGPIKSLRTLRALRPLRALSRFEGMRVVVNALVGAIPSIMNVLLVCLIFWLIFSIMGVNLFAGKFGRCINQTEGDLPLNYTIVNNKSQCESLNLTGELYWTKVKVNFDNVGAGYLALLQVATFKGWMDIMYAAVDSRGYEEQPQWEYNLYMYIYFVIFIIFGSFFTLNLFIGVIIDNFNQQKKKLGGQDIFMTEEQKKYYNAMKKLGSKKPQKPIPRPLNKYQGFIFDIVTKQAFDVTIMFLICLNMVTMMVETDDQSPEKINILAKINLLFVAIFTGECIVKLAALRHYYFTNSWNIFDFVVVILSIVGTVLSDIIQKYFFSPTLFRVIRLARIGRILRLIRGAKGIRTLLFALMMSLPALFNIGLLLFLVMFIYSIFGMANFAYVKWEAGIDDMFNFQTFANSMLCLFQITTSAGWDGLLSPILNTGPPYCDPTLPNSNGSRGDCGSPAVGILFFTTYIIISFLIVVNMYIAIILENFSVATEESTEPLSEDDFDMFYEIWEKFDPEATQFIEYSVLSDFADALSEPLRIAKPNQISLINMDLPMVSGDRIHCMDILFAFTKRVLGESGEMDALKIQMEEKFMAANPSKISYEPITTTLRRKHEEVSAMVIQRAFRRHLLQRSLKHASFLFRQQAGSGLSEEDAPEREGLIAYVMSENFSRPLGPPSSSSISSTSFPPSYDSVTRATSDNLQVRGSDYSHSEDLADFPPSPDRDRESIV
# measurement description: Sodium Influx Assay (Flux), NaV1.5
# measurement conditions: read-out: Flux NaV1.5 IC50; Trex HEK293 cells, ANG2 dye; arithmetic mean
endpoint name: pIC50
Remember, pIC50 is on a log scale: it is -log10 of the molar concentration.

Known pIC50 results, listed for orientation:
- compound: "CN(c1cc(F)c(S(=O)(=O)Nc2cscn2)cc1Cl)[C@H]1CCN(Cc2cccc(F)c2)C1 [Example 212]"
  endpoint name: "pIC50"
  endpoint value: 4.72
- compound: "Cc1ccc(F)c(CN2CC[C@H](N(C)c3cc(F)c(S(=O)(=O)Nc4cscn4)cc3C)C2)n1 [Example 130]"
  endpoint name: "pIC50"
  endpoint value: 4.62
- compound: "Cc1cc(S(=O)(=O)Nc2cscn2)c(F)cc1N(C)[C@H]1CCN(Cc2nc(C(F)(F)F)cs2)C1 [Example 152]"
  endpoint name: "pIC50"
  endpoint value: 5.05

Query block: Any idea what its pIC50 is? The compound is C[C@H](c1ccccc1)N1CCC(Oc2ccc(S(=O)(=O)Nc3cscn3)cc2Cl)CC1 [Example 57, 2,2,2-trifluoroacetate]
Result block: 5.28

---

Below is a list of entries, each paired with its recorded pIC50 value.
# study target: NaV1.5 (Homo sapiens (Human))
# measurement description: Sodium Influx Assay (Flux), NaV1.5
# measurement conditions: read-out: Flux NaV1.5 IC50; Trex HEK293 cells, ANG2 dye; arithmetic mean
Structures can show the parent of a compound that is named as a salt.
Notebook: values listed as pIC50 are -log10 of the concentration (mol/L).

Known results for compounds:
- compound: "Cc1c(OC2CCN(Cc3ccccc3)CC2)cc(F)c(S(=O)(=O)Nc2nccs2)c1F [Example 223, 2,2,2-trifluoroacetate]"
  endpoint value: 4.63
- compound: "Cc1ccc(F)c(CN2CC[C@](C)(Nc3ccc(S(=O)(=O)Nc4cscn4)cc3Cl)C2)c1 [Example 266, formate]"
  endpoint value: 5.69

Now consider a different compound.
Query block: Data request, read-out pIC50, for O=S(=O)(Nc1nccs1)c1ccc(OC2CCN(Cc3ccc4ccccc4c3)CC2)c(Cl)c1 [Example 51, 2,2,2-trifluoroacetate]
Result block: 5.46

---

# study target: NaV1.6 (Homo sapiens (Human))
# Sequence (Q9UQD0 whole entry, looked up): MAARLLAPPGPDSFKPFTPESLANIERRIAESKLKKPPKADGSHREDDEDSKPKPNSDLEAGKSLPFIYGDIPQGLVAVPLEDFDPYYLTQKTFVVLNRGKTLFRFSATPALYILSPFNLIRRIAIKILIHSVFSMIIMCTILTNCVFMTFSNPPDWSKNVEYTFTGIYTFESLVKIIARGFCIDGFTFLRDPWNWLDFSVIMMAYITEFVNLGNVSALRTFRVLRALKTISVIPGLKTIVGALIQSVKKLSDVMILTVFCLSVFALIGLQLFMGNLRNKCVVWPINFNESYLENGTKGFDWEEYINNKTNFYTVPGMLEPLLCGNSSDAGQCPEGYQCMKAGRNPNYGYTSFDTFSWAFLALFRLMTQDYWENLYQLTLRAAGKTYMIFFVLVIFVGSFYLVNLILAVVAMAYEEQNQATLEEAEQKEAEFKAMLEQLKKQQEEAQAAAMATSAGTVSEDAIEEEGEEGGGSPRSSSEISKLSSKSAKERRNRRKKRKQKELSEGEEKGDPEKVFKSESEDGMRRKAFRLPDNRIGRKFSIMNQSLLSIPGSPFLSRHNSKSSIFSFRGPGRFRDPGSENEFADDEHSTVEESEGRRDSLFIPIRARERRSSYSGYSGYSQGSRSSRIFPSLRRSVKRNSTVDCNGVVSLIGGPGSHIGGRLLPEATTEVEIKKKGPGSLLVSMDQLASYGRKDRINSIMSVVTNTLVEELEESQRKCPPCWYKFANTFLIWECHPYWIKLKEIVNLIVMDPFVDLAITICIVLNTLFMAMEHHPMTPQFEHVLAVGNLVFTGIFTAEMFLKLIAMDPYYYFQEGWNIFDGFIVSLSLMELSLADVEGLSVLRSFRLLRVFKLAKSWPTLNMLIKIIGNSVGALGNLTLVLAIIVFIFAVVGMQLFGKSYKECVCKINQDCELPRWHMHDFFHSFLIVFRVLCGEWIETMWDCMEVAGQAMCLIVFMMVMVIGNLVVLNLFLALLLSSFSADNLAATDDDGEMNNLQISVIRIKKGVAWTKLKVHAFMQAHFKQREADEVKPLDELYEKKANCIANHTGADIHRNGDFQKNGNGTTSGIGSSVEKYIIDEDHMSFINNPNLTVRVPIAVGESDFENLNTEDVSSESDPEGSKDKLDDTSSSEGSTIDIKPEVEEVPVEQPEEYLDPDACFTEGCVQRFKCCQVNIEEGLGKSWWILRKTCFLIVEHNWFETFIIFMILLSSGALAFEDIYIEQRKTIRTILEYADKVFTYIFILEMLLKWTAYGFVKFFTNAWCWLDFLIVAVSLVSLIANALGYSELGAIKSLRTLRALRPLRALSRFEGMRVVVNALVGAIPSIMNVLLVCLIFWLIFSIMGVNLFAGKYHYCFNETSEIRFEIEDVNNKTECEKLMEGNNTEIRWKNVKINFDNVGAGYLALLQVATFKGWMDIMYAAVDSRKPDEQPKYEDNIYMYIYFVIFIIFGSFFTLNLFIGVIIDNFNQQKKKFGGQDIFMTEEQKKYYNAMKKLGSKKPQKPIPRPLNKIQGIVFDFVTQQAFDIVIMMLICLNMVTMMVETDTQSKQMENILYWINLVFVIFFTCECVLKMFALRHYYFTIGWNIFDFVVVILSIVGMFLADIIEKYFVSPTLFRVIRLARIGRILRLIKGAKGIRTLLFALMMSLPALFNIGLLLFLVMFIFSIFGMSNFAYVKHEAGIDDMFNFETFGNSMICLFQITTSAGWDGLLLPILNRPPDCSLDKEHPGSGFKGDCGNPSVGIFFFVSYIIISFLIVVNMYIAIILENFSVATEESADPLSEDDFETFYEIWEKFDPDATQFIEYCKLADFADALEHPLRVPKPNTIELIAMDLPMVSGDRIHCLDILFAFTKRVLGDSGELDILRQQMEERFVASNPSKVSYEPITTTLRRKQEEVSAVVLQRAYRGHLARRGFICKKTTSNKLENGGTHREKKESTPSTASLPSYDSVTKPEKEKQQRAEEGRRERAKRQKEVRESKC
# Sequence (Q07699 whole entry partner, looked up): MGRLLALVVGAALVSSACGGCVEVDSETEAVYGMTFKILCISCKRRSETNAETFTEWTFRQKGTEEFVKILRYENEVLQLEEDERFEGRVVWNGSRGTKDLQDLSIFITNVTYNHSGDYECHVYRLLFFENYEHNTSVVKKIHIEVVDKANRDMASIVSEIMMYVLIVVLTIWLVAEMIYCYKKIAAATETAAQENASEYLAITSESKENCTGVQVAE
# measurement description: Sodium Influx Assay (Flux), NaV1.6
# measurement conditions: read-out: Flux NaV1.6 IC50; Trex HEK293 cells, ANG2 dye; arithmetic mean
pIC50: −log10 of the molar value. Structures can show the parent of a compound that is named as a salt.
Tag: True if measured pIC50 is not below 6, False if it is.

Reference set (4 entries):
- compound: "Cc1cc(S(=O)(=O)Nc2cscn2)c(F)cc1N(C)[C@H]1CCN(CC(C)(C)C)C1 [Example 124, formate]"
  study target: "NaV1.6 (Homo sapiens (Human))"
  group: "False"
- compound: "C[C@H](c1cc(C(F)F)ccc1F)N1CCC(Oc2ccc(S(=O)(=O)Nc3cscn3)cc2Cl)CC1 [Example 292, formate]"
  study target: "NaV1.6 (Homo sapiens (Human))"
  group: "False"
- compound: "Cc1ccc(F)c(CN2CC[C@H](N(C)c3cc(F)c(S(=O)(=O)Nc4cscn4)cc3Cl)C2)c1 [Example 172, 2,2,2-trifluoroacetate]"
  study target: "NaV1.6 (Homo sapiens (Human))"
  group: "True"
- compound: "Cc1cc(S(=O)(=O)Nc2ccon2)c(F)cc1N(C)[C@H]1CCN(Cc2ccccc2)C1 [Example 229, 2,2,2-trifluoroacetate]"
  study target: "NaV1.6 (Homo sapiens (Human))"
  group: "False"

Query block: I'd appreciate it if you could say whether O=S(=O)(Nc1ncns1)c1ccc(N[C@H]2CCN(Cc3ccccc3)C2)c(Cl)c1 [Example 67, 2,2,2-trifluoroacetate] has pIC50 at least equal to 6.
Result block: True

---

# study target: UniProt Q9UQD0
# measurement description: Sodium Influx Assay (Flux), NaV1.6
# measurement conditions: read-out: Flux NaV1.6 IC50; Trex HEK293 cells, ANG2 dye; arithmetic mean
pIC50 values, listed per item
Recall that pIC50 is obtained by taking minus log10 of the concentration measured in molar.

Solved entries (count: 3):
- compound: "O=S(=O)(Nc1cscn1)c1ccc(O[C@@H]2C[C@H]3CC[C@@H](C2)N3Cc2ccc(F)c(Cl)c2)c(Cl)c1"
  endpoint name: "pIC50"
  endpoint value: 5.48
- compound: "O=S(=O)(Nc1ncns1)c1ccc(OC2CCN(Cc3ccccc3)CC2)c(Cl)c1 [Example 100, 2,2,2-trifluoroacetate]"
  endpoint name: "pIC50"
  endpoint value: 6.72
- compound: "C[C@H]1C[C@@H](Oc2ccc(S(=O)(=O)Nc3nccs3)cc2Cl)CCN1Cc1ccccc1 (relative stereo)"
  endpoint name: "pIC50"
  endpoint value: 5.22

// switching to the query compound
Query block: Return reported pIC50; argument: Cc1cccc(CN2CC[C@H](N(C)c3cc(F)c(S(=O)(=O)Nc4ncns4)c(F)c3C)C2)n1 [Example 296, 2,2,2-trifluoroacetate]
Result block: 8.00

---

# study target: NaV1.6 (Homo sapiens (Human))
# measurement description: Sodium Influx Assay (Flux), NaV1.6
# measurement conditions: read-out: Flux NaV1.6 IC50; Trex HEK293 cells, ANG2 dye; arithmetic mean
Where a name gives a salt, the structure may show the parent alone.
endpoint name: pIC50
Answer as the number alone; pIC50 is minus log10 of concentration in mol/L.

- compound: "Cc1c(N(C)[C@H]2CCN(Cc3ccccc3)C2)cc(F)c(S(=O)(=O)Nc2ccsn2)c1F [Example 279, 2,2,2-trifluoroacetate]"
  endpoint value: 7.19
- compound: "CCc1c(O[C@H]2CCN(Cc3ccccc3)C2)cc(F)c(S(=O)(=O)Nc2cscn2)c1F [Example 276, 2,2,2-trifluoroacetate]"
  endpoint value: 6.25
- compound: "COc1cccnc1CN1CC[C@H](N(C)c2cc(F)c(S(=O)(=O)Nc3cscn3)cc2C)C1 [Example 120, formate]"
  endpoint value: 6.41
- compound: "Cc1c(O[C@@]2(C)CCN(Cc3ccccc3)C2)cc(F)c(S(=O)(=O)Nc2cscn2)c1F [Example 158, formate]"
  endpoint value: 8.05

Field: next compound
Query block: What value of pIC50 has been recorded for this entry: Cc1cc(S(=O)(=O)Nc2cscn2)c(F)cc1O[C@H]1CCN(Cc2ccccc2)C1 [Example 273, 2,2,2-trifluoroacetate]
Result block: 5.70

---

# study target: NaV1.6 (Homo sapiens (Human))
# measurement description: Sodium Influx Assay (Flux), NaV1.6
# measurement conditions: read-out: Flux NaV1.6 IC50; Trex HEK293 cells, ANG2 dye; arithmetic mean
Counter-ions that a name gives are not always drawn.
endpoint name: pIC50
In simple prose, pIC50 is minus the logarithm base ten of a concentration in moles per litre.

- compound: "CN(c1cc(F)c(S(=O)(=O)Nc2cscn2)cc1Cl)[C@H]1CCN(Cc2ccc(F)cc2)C1 [Example 180]"
  study target: "NaV1.6 (Homo sapiens (Human))"
  pIC50: 5.28
- compound: "Cc1c(NC2(C)CN(Cc3ccccc3)C2)cc(F)c(S(=O)(=O)Nc2cscn2)c1F [Example 233, 2,2,2-trifluoroacetate]"
  study target: "NaV1.6 (Homo sapiens (Human))"
  pIC50: 6.43
- compound: "Cc1c(N(C)[C@H]2CCN(Cc3ccccc3)C2)cc(F)c(S(=O)(=O)Nc2ncns2)c1F [Example 295]"
  study target: "NaV1.6 (Homo sapiens (Human))"
  pIC50: 8.05

Query block: Return reported pIC50; argument: C[C@H](c1ccccc1)N1CCC(Oc2cc(F)c(S(=O)(=O)Nc3cscn3)cc2Cl)CC1 [Example 222, 2,2,2-trifluoroacetate]
Result block: 6.02

Query block: Bench note: what pIC50 did Cc1cc(S(=O)(=O)Nc2cccc(F)n2)c(F)cc1N(C)[C@H]1CCN(Cc2ccccc2)C1 [Example 308] show?
Result block: 5.83

Query block: Quick one: pIC50 of CN(c1cc(F)c(S(=O)(=O)Nc2cscn2)cc1Cl)[C@H]1CCN(CCC(C)(C)C)C1 [Example 175, 2,2,2-trifluoroacetate] ?
Result block: 5.59

Query block: What value of pIC50 has been recorded for this entry: Cc1cc(S(=O)(=O)Nc2cscn2)c(F)cc1N(C)[C@H]1CCN(Cc2ccccc2F)C1 [Example 155]
Result block: 6.66

Query block: Can you look up the measured pIC50 of CN(c1cc(F)c(S(=O)(=O)Nc2cscn2)cc1Cl)[C@H]1CCN(Cc2nc(C(F)F)ccc2F)C1 [Example 163, formate] for me?
Result block: 5.55

Query block: Could you tell me which pIC50 is on file for Cc1ccc(CN2CCC(Oc3ccc(S(=O)(=O)Nc4nccs4)cc3Cl)CC2)cc1C [Example 93] ?
Result block: 5.44

Query block: What value of measured pIC50 is listed for CN(c1cc(F)c(S(=O)(=O)Nc2cscn2)cc1Cl)[C@H]1CCN(CCOCc2ccccc2)C1 [Example 200] ?
Result block: 5.33

Query block: Could you share which pIC50 value was measured for Cc1ccc(CN2CC[C@H](N(C)c3cc(F)c(S(=O)(=O)Nc4cscn4)cc3Cl)C2)cc1 [Example 201] ?
Result block: 5.48

Query block: # query: pIC50 of entry Cc1cc(S(=O)(=O)Nc2cscn2)c(F)cc1N(C)[C@H]1CCN(Cc2nc3ccccc3s2)C1 [Example 144]
Result block: 5.32

Query block: Please give the measured pIC50 for this compound: CN(c1ccc(S(=O)(=O)Nc2cscn2)cc1Cl)[C@H]1CCN(Cc2cc(Cl)ccc2F)C1 [Example 254, formate]
Result block: 5.94

Query block: If you can, please state the reported pIC50 value of Cc1cc(S(=O)(=O)Nc2cscn2)c(F)cc1N(C)[C@H]1CCN(Cc2ccccc2)C1 [Example 101, formate] .
Result block: 6.57

Query block: For Cc1cc(C)cc(CN2CCC(Oc3ccc(S(=O)(=O)Nc4ncns4)cc3Cl)C(C)(C)C2)c1 (stereo not shown) [Example 3, 2,2,2-trifluoroacetate] , what is its reported pIC50?
Result block: 5.18

Query block: Entry under review: CN(c1cc(F)c(S(=O)(=O)Nc2cscn2)cc1Cl)[C@H]1CCN(Cc2cccc3ccncc23)C1 [Example 186, 2,2,2-trifluoroacetate] . Reported pIC50?
Result block: 5.48

Query block: Which pIC50 is reported for this compound? Cc1ccc(F)c(CN2CC[C@H](N(C)c3cc(F)c(S(=O)(=O)Nc4cscn4)cc3Cl)C2)n1 [Example 314]
Result block: 6.14

Query block: Please look up its pIC50: C[C@H](c1cc(Cl)ccc1F)N1CCC(Oc2ccc(S(=O)(=O)Nc3cscn3)cc2Cl)CC1 [Example 315]
Result block: 5.97

Query block: # input compound: Cc1cccc(CN2CCC(Oc3ccc(S(=O)(=O)Nc4nccs4)cc3Cl)CC2)c1 [Example 92] ; wanted: its pIC50
Result block: 6.69
